FYI, the data here is from patent US10077261B2.

Target: hFASN enzyme (full length) (Homo sapiens)
Construct: 10 μL hFASN enzyme (full length, 300 ng, purified in house); made in house
Test: Fatty Acid Synthase (FASN) inhibition scintillation proximity assay
Type: biochemical
Conditions: read-out: Human FASN pIC50 (converted)
Protocol: In this assay, inhibition of FASN activity is measured using ^3H-acetyl-CoA and malonyl-CoA as substrates. ^3H-Acetyl CoA is converted to ^3H-palmitate through a series of reactions by the FASN protein, which contains 7 functional domains and carries out 7 enzymatic reactions to ultimately produce ^3H-palmitate. The assay principle is based upon the fact that ^3H-acetyl-CoA is hydrophilic and the end product, ^3H-palmitate is hydrophobic. […]
Measured log10(IC50) accompanies every entry in the list below.
MEASURED_METRIC: log10(IC50) (log10 of the value in nM)

[
  {
    "MOLECULE_SMILES": "Cn1ncc2cc(-c3ccc(C4=NC5(CC5)C(=O)N4CC4CN(C(=O)C5CC5)C4)cc3Cl)ccc21",
    "RECORDED_MEASUREMENT": 3.31
  },
  {
    "MOLECULE_SMILES": "O=C(C1CC1)N1CC[C@@H](CN2C(=O)C3(CC3)N=C2c2ccc(-c3ccc4c(=O)[nH]ccc4c3)cc2)C1",
    "RECORDED_MEASUREMENT": 2.52
  },
  {
    "MOLECULE_SMILES": "Cc1cc(C2=NC3(CC3)C(=O)N2C[C@@H]2CCN(C(=O)C3CC3)C2)ccc1-c1ccc2sc(C)c(C)c2c1",
    "RECORDED_MEASUREMENT": 2.00
  },
  {
    "MOLECULE_SMILES": "COCc1c2ccc(-c3ccc(C4=NC5(CC5)C(=O)N4C[C@@H]4CCN(C(=O)C5CC5)C4)cc3)cc2nn1C",
    "RECORDED_MEASUREMENT": 3.18
  },
  {
    "MOLECULE_SMILES": "Cc1cc(-c2ccc(C#N)cc2F)ccc1C1=NC2(CC2)C(=O)N1CC1CN(C(=O)C2(C)CC2)C1",
    "RECORDED_MEASUREMENT": 2.09
  }
]

---

test system: LNCaP-Vancouver prostate cells; assay: In vitro LNCaP Vancouver prostate cell proliferation assay in lipid reduced medium; assay type: cell-based; details: read-out: pIC50 LNCaP_Vancouver prostate cell (converted)
MEASURED_METRIC: IC50 (nM)

[
  {
    "COMPOUND": "O=C(C1CC1)N1CC[C@@H](CN2C(=O)C3(CC3)N=C2c2ccc(-c3ccc4occc4c3)c(F)c2)C1 [compound 232]",
    "RECORDED_MEASUREMENT": 1820
  },
  {
    "COMPOUND": "Cc1[nH]c2ccc(-c3ccc(C4=NC5(CC5)C(=O)N4C[C@@H]4CCN(C(=O)C5CC5)C4)cc3)cc2c1C [compound 213]",
    "RECORDED_MEASUREMENT": 355
  },
  {
    "COMPOUND": "Cc1cc(-c2ccc3c(c2)ncn3C)ccc1C1=NC2(CC2)C(=O)N1CC1CN(C(=O)C2(O)CC2)C1 [compound 628]",
    "RECORDED_MEASUREMENT": 724
  },
  {
    "COMPOUND": "Cc1cc(-c2ccc3c(cnn3C)c2)ccc1C1=NC2(CC2)C(=O)N1CC1CN(C(=O)C2(CO)CC2)C1 [compound 480]",
    "RECORDED_MEASUREMENT": 1150
  },
  {
    "COMPOUND": "O=C(C1CC1)N1CC(CN2C(=O)C3(CC3)N=C2c2ccc(-c3ccc4[nH]ccc4c3)c(F)c2)C1 [compound 440]",
    "RECORDED_MEASUREMENT": 1150
  },
  {
    "COMPOUND": "O=C(N1CC[C@@H](CN2C(=O)C3(CC3)N=C2c2ccc(-c3ccc4cc(F)ccc4c3)cc2F)C1)C1(O)CC1 [compound 381]",
    "RECORDED_MEASUREMENT": 10.5
  }
]

---

molecular target: hFASN enzyme (full length) (Homo sapiens, UniProt P49327); construct: 10 μL hFASN enzyme (full length, 300 ng, purified in house); made in house; assay: Fatty Acid Synthase (FASN) inhibition scintillation proximity assay; format: biochemical; conditions: read-out: Human FASN pIC50 (converted)
Sequence (P49327 whole entry): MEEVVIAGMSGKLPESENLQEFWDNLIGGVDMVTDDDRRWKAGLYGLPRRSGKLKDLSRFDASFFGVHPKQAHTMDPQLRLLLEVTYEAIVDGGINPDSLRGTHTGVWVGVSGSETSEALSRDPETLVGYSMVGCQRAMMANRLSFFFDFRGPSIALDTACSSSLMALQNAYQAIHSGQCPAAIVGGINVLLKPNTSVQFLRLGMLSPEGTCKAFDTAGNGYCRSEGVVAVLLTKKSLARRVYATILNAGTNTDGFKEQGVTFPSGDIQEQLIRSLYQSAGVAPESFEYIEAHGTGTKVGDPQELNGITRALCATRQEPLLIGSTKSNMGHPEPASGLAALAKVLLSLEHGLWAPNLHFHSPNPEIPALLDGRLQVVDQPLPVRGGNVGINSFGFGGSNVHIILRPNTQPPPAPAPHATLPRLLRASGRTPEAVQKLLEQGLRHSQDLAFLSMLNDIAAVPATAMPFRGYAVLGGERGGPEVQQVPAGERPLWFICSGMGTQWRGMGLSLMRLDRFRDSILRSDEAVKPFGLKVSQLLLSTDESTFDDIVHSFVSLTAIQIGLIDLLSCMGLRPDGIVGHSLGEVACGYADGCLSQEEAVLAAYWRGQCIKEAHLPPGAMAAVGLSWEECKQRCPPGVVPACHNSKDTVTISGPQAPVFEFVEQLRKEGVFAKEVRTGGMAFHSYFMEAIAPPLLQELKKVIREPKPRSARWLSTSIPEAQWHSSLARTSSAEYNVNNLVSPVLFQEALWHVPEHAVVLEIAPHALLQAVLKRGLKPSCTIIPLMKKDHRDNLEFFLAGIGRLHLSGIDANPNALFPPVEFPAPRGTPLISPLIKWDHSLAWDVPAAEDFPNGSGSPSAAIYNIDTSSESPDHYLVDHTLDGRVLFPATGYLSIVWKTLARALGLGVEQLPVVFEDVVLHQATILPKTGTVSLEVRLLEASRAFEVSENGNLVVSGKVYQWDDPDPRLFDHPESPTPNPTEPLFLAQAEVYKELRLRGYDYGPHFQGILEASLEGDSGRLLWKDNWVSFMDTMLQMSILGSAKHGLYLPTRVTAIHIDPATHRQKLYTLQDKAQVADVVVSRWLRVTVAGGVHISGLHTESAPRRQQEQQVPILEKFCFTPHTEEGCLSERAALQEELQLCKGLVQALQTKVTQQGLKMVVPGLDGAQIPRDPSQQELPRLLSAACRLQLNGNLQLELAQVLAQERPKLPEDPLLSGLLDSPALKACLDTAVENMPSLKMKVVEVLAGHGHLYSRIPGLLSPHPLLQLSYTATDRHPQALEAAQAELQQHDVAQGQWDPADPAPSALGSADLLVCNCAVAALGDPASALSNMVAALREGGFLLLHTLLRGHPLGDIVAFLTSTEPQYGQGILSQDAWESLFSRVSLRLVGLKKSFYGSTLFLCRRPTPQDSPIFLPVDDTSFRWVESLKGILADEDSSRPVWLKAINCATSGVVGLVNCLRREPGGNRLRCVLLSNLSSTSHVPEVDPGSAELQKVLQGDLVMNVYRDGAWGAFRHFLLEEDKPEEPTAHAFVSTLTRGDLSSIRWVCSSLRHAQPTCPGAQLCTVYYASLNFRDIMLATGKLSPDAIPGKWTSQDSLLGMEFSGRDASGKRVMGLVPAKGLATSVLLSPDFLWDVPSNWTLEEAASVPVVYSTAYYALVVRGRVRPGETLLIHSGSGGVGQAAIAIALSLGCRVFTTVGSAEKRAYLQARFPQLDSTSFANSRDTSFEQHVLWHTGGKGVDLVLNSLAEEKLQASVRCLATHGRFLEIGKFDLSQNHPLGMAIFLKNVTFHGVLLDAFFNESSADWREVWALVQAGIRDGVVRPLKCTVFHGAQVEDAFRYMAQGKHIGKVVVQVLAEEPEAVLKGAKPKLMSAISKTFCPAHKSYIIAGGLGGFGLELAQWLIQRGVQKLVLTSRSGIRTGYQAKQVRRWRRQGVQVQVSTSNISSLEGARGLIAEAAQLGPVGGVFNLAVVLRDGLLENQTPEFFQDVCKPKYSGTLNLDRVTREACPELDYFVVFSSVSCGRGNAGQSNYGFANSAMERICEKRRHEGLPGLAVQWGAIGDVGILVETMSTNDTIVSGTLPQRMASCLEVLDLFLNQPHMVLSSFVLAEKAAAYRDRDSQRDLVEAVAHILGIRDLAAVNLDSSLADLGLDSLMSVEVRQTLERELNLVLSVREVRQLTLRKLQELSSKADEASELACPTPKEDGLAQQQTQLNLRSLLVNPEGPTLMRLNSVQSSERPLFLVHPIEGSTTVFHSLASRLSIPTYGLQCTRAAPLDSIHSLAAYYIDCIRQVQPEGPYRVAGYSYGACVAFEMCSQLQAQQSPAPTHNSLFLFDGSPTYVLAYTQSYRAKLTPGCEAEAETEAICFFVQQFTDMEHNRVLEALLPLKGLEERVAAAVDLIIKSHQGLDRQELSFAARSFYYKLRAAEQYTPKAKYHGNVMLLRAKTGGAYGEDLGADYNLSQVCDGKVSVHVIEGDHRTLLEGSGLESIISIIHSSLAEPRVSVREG
Measured IC50 accompanies every entry in the list below.

[
  {
    "COMPOUND": "CC(O)C(=O)N1CC[C@@H](CN2C(=O)C3(CCOC3)N=C2c2ccc(-c3ccc4c(cnn4C)c3)cc2)C1 (stereo partly shown)",
    "IC50": "~7.41 µM"
  },
  {
    "COMPOUND": "Cc1cc2cc(-c3ccc(C4=NC5(CC5)C(=O)N4CC4CN(C(=O)C5(C)CC5)C4)c(F)c3)ccc2s1",
    "IC50": "0.0741 µM"
  },
  {
    "COMPOUND": "COC(=O)N1CC(CN2C(=O)C3(CCOC3)N=C2c2ccc(-c3ccc(-c4cnn(C)c4)cc3)cc2)C1 (stereo not shown)",
    "IC50": "> 10 µM"
  },
  {
    "COMPOUND": "COC(=O)N1CC(CN2C(=O)C3(CCOCC3)N=C2c2ccc(-c3ccc4cccnc4c3)cc2)C1",
    "IC50": "> 10 µM"
  }
]

---

target: hFASN enzyme (full length) (Homo sapiens, UniProt P49327); construct: 10 μL hFASN enzyme (full length, 300 ng, purified in house); made in house; assay: Fatty Acid Synthase (FASN) inhibition scintillation proximity assay; assay type: biochemical; settings: read-out: Human FASN % inhibition @ 10 μM, 10 μM test compound
Measured inhibition at 10 µM accompanies every entry in the list below.

[
  {
    "MOLECULE_SMILES": "O=C(C1CC1)N1CC(CN2C(=O)C3(CC3)N=C2c2ccc(-c3ccc(N4CCCC4)nc3)cc2)C1",
    "ASSAYED_SYSTEM": "hFASN enzyme (full length) (Homo sapiens, UniProt P49327)",
    "READOUT_UNIT": "%",
    "inhibition at 10 µM": 76
  },
  {
    "MOLECULE_SMILES": "Cn1ncc2cc(-c3ccc(C4=NC5(CCOCC5)C(=O)N4CC4CN(S(C)(=O)=O)C4)cc3)ccc21",
    "ASSAYED_SYSTEM": "hFASN enzyme (full length) (Homo sapiens, UniProt P49327)",
    "READOUT_UNIT": "%",
    "inhibition at 10 µM": 6
  },
  {
    "MOLECULE_SMILES": "O=C(C1CC1)N1CC[C@H](CN2C(=O)C3(CC3)N=C2c2ccc(-c3ccc4sccc4c3)cc2)C1",
    "ASSAYED_SYSTEM": "hFASN enzyme (full length) (Homo sapiens, UniProt P49327)",
    "READOUT_UNIT": "%",
    "inhibition at 10 µM": 107
  },
  {
    "MOLECULE_SMILES": "CC(C)n1cc2cc(-c3ccc(C4=NC5(CC5)C(=O)N4C[C@@H]4CCN(C(=O)C5CC5)C4)cc3)ccc2n1",
    "ASSAYED_SYSTEM": "hFASN enzyme (full length) (Homo sapiens, UniProt P49327)",
    "READOUT_UNIT": "%",
    "inhibition at 10 µM": 35
  },
  {
    "MOLECULE_SMILES": "CC(C)n1cc(-c2ccc(-c3ccc(C4=NC5(CC5)C(=O)N4CC4CN(C(=O)C5CC5)C4)cc3)cn2)cn1",
    "ASSAYED_SYSTEM": "hFASN enzyme (full length) (Homo sapiens, UniProt P49327)",
    "READOUT_UNIT": "%",
    "inhibition at 10 µM": 83
  },
  {
    "MOLECULE_SMILES": "Cn1ncc2cc(-c3ccc(C4=NC5(CC5)C(=O)N4CC4CN(C(=O)C5CC5)C4)c(F)c3)ccc21",
    "ASSAYED_SYSTEM": "hFASN enzyme (full length) (Homo sapiens, UniProt P49327)",
    "READOUT_UNIT": "%",
    "inhibition at 10 µM": 98
  },
  {
    "MOLECULE_SMILES": "Cc1cc2cc(-c3ccc(C4=NC5(CC5)C(=O)N4C[C@@H]4CCN(C(=O)C5CC5)C4)cc3)ccc2o1",
    "ASSAYED_SYSTEM": "hFASN enzyme (full length) (Homo sapiens, UniProt P49327)",
    "READOUT_UNIT": "%",
    "inhibition at 10 µM": 100
  }
]

---

Measured inhibition at 10 µM accompanies every entry in the list below.
target: hFASN enzyme (full length) (Homo sapiens, UniProt P49327); construct: 10 μL hFASN enzyme (full length, 300 ng, purified in house); made in house; assay: Fatty Acid Synthase (FASN) inhibition scintillation proximity assay; format: biochemical; details: read-out: Human FASN % inhibition @ 10 μM, 10 μM test compound
MEASURED_METRIC: inhibition at 10 µM (%)

[
  {
    "MOLECULE": "CN(C)c1ccc(-c2ccc(C3=NC4(CC4)C(=O)N3C[C@@H]3CCN(C(=O)C4CC4)C3)cc2)cc1 [compound 124]",
    "MEASURED_METRIC": "inhibition at 10 µM",
    "RECORDED_MEASUREMENT": 113
  },
  {
    "MOLECULE": "O=C(C1CC1)N1CC(CN2C(=O)C3(CCOC3)N=C2c2ccc(-c3ccc4cccnc4c3)cc2)C1 (stereo not shown) [compound 714]",
    "MEASURED_METRIC": "inhibition at 10 µM",
    "RECORDED_MEASUREMENT": 89
  },
  {
    "MOLECULE": "CCC(=O)N1CC(CN2C(=O)C3(CC3)N=C2c2ccc(-c3ccc4c(cnn4C)c3)cc2C)C1 [compound 471]",
    "MEASURED_METRIC": "inhibition at 10 µM",
    "RECORDED_MEASUREMENT": 99
  },
  {
    "MOLECULE": "COC(=O)N1CC(CN2C(=O)C3(CCOCC3)N=C2c2ccc(-c3ccc(-c4cnn(C)c4)cc3)cc2)C1 [compound 936]",
    "MEASURED_METRIC": "inhibition at 10 µM",
    "RECORDED_MEASUREMENT": 7
  },
  {
    "MOLECULE": "O=C(C1CC1)N1CC(CN2C(=O)C3(CC3)N=C2c2ccc(-c3ccc4c(cnn4CCO)c3)cc2)C1 [compound 556]",
    "MEASURED_METRIC": "inhibition at 10 µM",
    "RECORDED_MEASUREMENT": 61
  },
  {
    "MOLECULE": "Cn1cc(-c2ccc(-c3ccc(C4=NC5(CC5)C(=O)N4C[C@H]4CCN(C(=O)C5CC5)C4)cc3)cc2)cn1 [compound 411]",
    "MEASURED_METRIC": "inhibition at 10 µM",
    "RECORDED_MEASUREMENT": 100
  },
  {
    "MOLECULE": "Nc1cccc(-c2ccc(C3=NC4(CC4)C(=O)N3C[C@@H]3CCN(C(=O)C4CC4)C3)cc2)n1 [compound 400]",
    "MEASURED_METRIC": "inhibition at 10 µM",
    "RECORDED_MEASUREMENT": 101
  }
]
